# Test system: SNB-19
# measurementNotes: NCI tumour cell line growth inhibition, 48 h
The source made the active and inactive calls. Cut-off read from the data, not from the text of the source: active = GI50 up to about 1.1 µM and inactive = higher.
Form entry, call: pick from active, inactive

Solved entries:
O=C(/C=C/c1ccccc1)Oc1cccc(Br)c1 ... inactive
c1ccc2c(NCCCCCCCCNc3c4ccccc4nc4ccccc34)c3ccccc3nc2c1 ... active
CC(=O)CCCCn1c(=O)c2c(nc(Br)n2C)n(C)c1=O ... inactive

Input: Could you please tell me the result logged for "COc1ccc([C@H]2[C@@H]3CCc4ccccc4C3=NN2C(N)=S)cc1OC" in this assay?
Output: inactive

Input: Now consider O=C(O)c1ccc2c(c1)CC1(C2)Cc2cc3c(cc2C1=O)CCC3 (stereo unspecified) .
Output: inactive

Input: Now consider "CC(C)NC(=O)OCc1c(COC(=O)NC(C)C)c(-c2cc[n+](COC(=O)C3CCCCC3)cc2)n2c1CCC2" .
Output: inactive

Input: Now consider "O=C(/C=C/c1cccc([N+](=O)[O-])c1)c1ccc([N+](=O)[O-])cc1" .
Output: inactive
